B1: tRNA (parent)
chain: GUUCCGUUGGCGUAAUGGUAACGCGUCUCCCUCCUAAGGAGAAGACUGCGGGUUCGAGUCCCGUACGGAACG

- Variants of: B1
- protocol.details: yeast fitness relative to wild type (ratio to wild type); higher = fitter; tRNA-Arg(CCU), competitive growth, 37 C, YPD
Variants at the floor of the assay were thinned out.
reported.endpoint: yeast fitness

>>> print(df.to_string())
                   variant_code  result
0                G18C C34G G58C   ≤ 0.5
1           G18A A40U A42U A65C   0.534
2             U3G C4U U35A G58A   ≤ 0.5
3  U7A G12C C27G C31A C46A C62G   ≤ 0.5
4                      U7A G41A   0.634
5                C29A G44A A70G   0.804
6                     C24U G68U   0.892
7       C5A C31G A37G C62U G63C   0.577
8           C22U A45U G52C A57U   ≤ 0.5
9                     A21U A57U    0.61

Req: State the recorded yeast fitness for this entry: C55A C61A
Resp: 0.579

Req: Form field: reported yeast fitness of U2A U7G A42G A45U G52A U64C A69U
Resp: ≤ 0.5

Req: Entry under review: C11G C27A C31A . Reported yeast fitness?
Resp: ≤ 0.5

Req: For the variant C4A C31A U35C A45U , what yeast fitness is on record?
Resp: ≤ 0.5

Req: Record request: yeast fitness value, item A20G U47C
Resp: 0.947

Req: Which yeast fitness value belongs to A15G C29G C33G ?
Resp: ≤ 0.5

Req: Look up yeast fitness: C5U U47A
Resp: 1.06

Req: Name the recorded yeast fitness for A14U G44A G58C .
Resp: ≤ 0.5

Req: Dear colleague, I am looking for the recorded yeast fitness of the following variant: A37C U47C G51A
Resp: ≤ 0.5

Req: Which yeast fitness reading was recorded for the variant U26A C61A A65U ?
Resp: 0.686

Req: Which yeast fitness value belongs to U35C A45U C49A ?
Resp: 0.594

Req: # get_value(readout='yeast fitness', item= U8C A21U C24A )
Resp: ≤ 0.5

Just for reference, the RNAGym collection of RNA variant scans (doi:10.1126/science.aae0568) is where these values come from.
